Parameter: IC50. Scope: all listed entries.
- system-name: PARP7 (Homo sapiens (Human), UniProt Q7Z3E1)
- Sequence (Q7Z3E1 whole entry): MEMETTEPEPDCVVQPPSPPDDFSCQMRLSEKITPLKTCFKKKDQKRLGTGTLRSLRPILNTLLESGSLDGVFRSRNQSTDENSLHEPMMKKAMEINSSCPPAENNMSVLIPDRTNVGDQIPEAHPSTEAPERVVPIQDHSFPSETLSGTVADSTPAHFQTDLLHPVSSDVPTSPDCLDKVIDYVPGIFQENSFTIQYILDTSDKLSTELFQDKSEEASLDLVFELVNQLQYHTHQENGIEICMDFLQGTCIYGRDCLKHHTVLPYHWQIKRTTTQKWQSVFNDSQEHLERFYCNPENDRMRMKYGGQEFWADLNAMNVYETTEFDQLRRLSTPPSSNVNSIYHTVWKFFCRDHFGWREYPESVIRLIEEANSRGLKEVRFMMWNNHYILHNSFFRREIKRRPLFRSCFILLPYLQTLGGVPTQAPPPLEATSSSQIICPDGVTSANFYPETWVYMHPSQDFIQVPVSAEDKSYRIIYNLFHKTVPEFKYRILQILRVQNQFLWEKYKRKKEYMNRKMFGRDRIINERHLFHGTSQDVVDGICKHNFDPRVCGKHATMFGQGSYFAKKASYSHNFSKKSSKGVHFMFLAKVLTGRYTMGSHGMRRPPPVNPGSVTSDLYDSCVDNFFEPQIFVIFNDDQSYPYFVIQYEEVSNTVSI
- assay-procedure: Enzymatic assay for inhibition of PARP7: TR-FRET displacement of biotinylated Probe A from the TIPARP active site
- applied-conditions: Table A-1

>  <compound>
N#Cc1ccc(N2CCN(C(=O)c3cc(OC[C@@H]4c5ccccc5CN4c4cn[nH]c(=O)c4C(F)(F)F)ccn3)CC2)nc1 [Example 357]

>  <IC50>
< 100 nM

$$$$
>  <compound>
N#Cc1ccc(N2CCN(C(=O)CCOC[C@H](Nc3cn[nH]c(=O)c3C(F)(F)F)c3ccncc3)CC2)nc1 [Example 527B]

>  <IC50>
≥ 1000 nM

$$$$
>  <compound>
O=c1[nH]ncc(N2Cc3ccccc3C2)c1Cl [Example 151]

>  <IC50>
100 to 1000 nM

$$$$
>  <compound>
O=C(CCOC[C@@H]1CCCN1c1cn[nH]c(=O)c1C(F)(F)F)N1CCN(c2ncccn2)CC1 [Example 456]

>  <IC50>
< 100 nM

$$$$
>  <compound>
O=C(C[C@@H]1CC[C@@H](CNc2cn[nH]c(=O)c2C(F)(F)F)O1)N1CCN(c2ncc(C(F)(F)F)cn2)CC1 (single isomer, unassigned) [Example 568 Isomer A]

>  <IC50>
< 100 nM

$$$$
>  <compound>
COC[C@H](CO[C@H](C)CC(=O)N1CCN(c2ccc(C#N)cn2)CC1)Oc1cn[nH]c(=O)c1C(F)(F)F (single isomer, unassigned) [Example 571 Isomer C]

>  <IC50>
≥ 1000 nM

$$$$
>  <compound>
CC(=O)N1CCN(CCOc2cccc3c2CN(c2cn[nH]c(=O)c2Cl)C3)CC1 [Example 230]

>  <IC50>
100 to 1000 nM

$$$$
>  <compound>
N#Cc1ccc(N2CCC(NC(=O)CCOC[C@@H]3CCCN3c3cn[nH]c(=O)c3C(F)(F)F)C2)nc1 (stereo partly drawn) [Example 117]

>  <IC50>
100 to 1000 nM

$$$$
>  <compound>
C[C@@H](OCCC(=O)N1CCN(c2ccc(C#N)cn2)CC1)[C@@H]1CCCN1c1cn[nH]c(=O)c1C(F)(F)F [Example 140A]

>  <IC50>
< 100 nM

$$$$
>  <compound>
COc1cccc2c1CN(c1cn[nH]c(=O)c1C(F)(F)F)C2C (stereo not drawn) [Example 308]

>  <IC50>
100 to 1000 nM

$$$$
>  <compound>
N#Cc1ccc(N2CCCN(C(=O)CCOC[C@@H]3CCCN3c3cn[nH]c(=O)c3C(F)(F)F)CC2)nc1 [Example 106]

>  <IC50>
< 100 nM

$$$$
>  <compound>
N#Cc1c(OCCOCCC(=O)N2CCN(c3ncc(C(F)(F)F)cn3)CC2)cn[nH]c1=O [Example 553]

>  <IC50>
< 100 nM

$$$$
>  <compound>
CN1CCN(C(=O)CCOC[C@@H]2c3ccccc3CN2c2cn[nH]c(=O)c2C(F)(F)F)CC1 [Example 421]

>  <IC50>
100 to 1000 nM

$$$$
>  <compound>
CC(Oc1cccc2c1CN(c1cn[nH]c(=O)c1C(F)(F)F)C2)c1ccncc1 (stereo not drawn) [Example 252]

>  <IC50>
< 100 nM

$$$$
>  <compound>
NCc1ccc2c(c1)CN(c1cn[nH]c(=O)c1C(F)(F)F)C2 [Example 322]

>  <IC50>
100 to 1000 nM

$$$$
>  <compound>
C[C@H](CSCCC(=O)N1CCN(c2ncc(C(F)(F)F)cn2)CC1)Nc1cn[nH]c(=O)c1C(F)(F)F [Example 703]

>  <IC50>
100 to 1000 nM

$$$$
>  <compound>
C[C@@H](COCCS(=O)(=O)N1CCN(c2ncc(C(F)(F)F)s2)CC1)Nc1cn[nH]c(=O)c1Br [Example 732]

>  <IC50>
< 100 nM

$$$$
>  <compound>
Cc1c(N2Cc3cccc(OCCO)c3C2)cn[nH]c1=O [Example 171]

>  <IC50>
≥ 1000 nM

$$$$
>  <compound>
C[C@@H](COc1cn[nH]c(=O)c1C(F)(F)F)OCCC(=O)N1CCN(c2ccc(C#N)cn2)CC1 [Example 530C]

>  <IC50>
100 to 1000 nM

$$$$
>  <compound>
COCCOc1ccc2c(c1)CN(c1cn[nH]c(=O)c1Cl)C2 [Example 156]

>  <IC50>
100 to 1000 nM

$$$$
>  <compound>
O=C(COC[C@@H]1CCCN1c1cn[nH]c(=O)c1C(F)(F)F)NC1CCC(Nc2ccccn2)CC1 (single isomer, unassigned; isomer b) [Example 80 Isomer B]

>  <IC50>
100 to 1000 nM

$$$$
>  <compound>
N#Cc1ccc(N2CCN(C(=O)CCOCCOCC3CCN(c4cn[nH]c(=O)c4C(F)(F)F)C3)CC2)nc1 (stereo not drawn) [Example 466]

>  <IC50>
< 100 nM

$$$$
>  <compound>
C[C@@H](COCCC(=O)N1CCN(c2ncc(C(F)(F)F)s2)CC1)Oc1cn[nH]c(=O)c1Br [Example 730]

>  <IC50>
100 to 1000 nM

$$$$
>  <compound>
O=C(C[C@@H]1CC[C@@H](COc2cn[nH]c(=O)c2Cl)O1)N1CCN(c2ncc(C(F)(F)F)cn2)CC1 (single isomer, unassigned) [Example 575 Isomer A]

>  <IC50>
≥ 1000 nM

$$$$
>  <compound>
CNCCOc1ccc2c(n1)CN(c1cn[nH]c(=O)c1C(F)(F)F)C2 [Example 318]

>  <IC50>
100 to 1000 nM

$$$$
>  <compound>
CN1CCC(Oc2cc3c(cc2F)CN(c2cn[nH]c(=O)c2C(F)(F)F)C3)C1 (stereo not drawn) [Example 55]

>  <IC50>
< 100 nM

$$$$
>  <compound>
N#Cc1ccc(N2CCN(CCC(=O)NC[C@@H]3CCCN3c3cn[nH]c(=O)c3C(F)(F)F)CC2)nc1 [Example 134]

>  <IC50>
≥ 1000 nM

$$$$
>  <compound>
CC(=O)N1CCC(COc2cc3c(cc2F)CN(c2cn[nH]c(=O)c2C(C)C)C3)CC1 [Example 489]

>  <IC50>
≥ 1000 nM

$$$$
>  <compound>
O=c1[nH]ncc(N2Cc3cccc(CO)c3C2)c1C(F)(F)F [Example 261]

>  <IC50>
100 to 1000 nM

$$$$
>  <compound>
O=C(C[C@H]1CC[C@@H](COc2cn[nH]c(=O)c2Cl)O1)N1CCN(c2ncc(C(F)(F)F)cn2)CC1 [Example 575 Isomer C]

>  <IC50>
100 to 1000 nM

$$$$
